Reference for the values: patent US4347177A

experiment: Pharmacokinetics of bupropion in plasma after oral administration to four normal male subjects (RIA using 3H bupropion); format: in vivo; settings: human plasma, oral 200 mg bupropion-HCl (two 100 mg tablets), mean ± S.D., read-out: maximum plasma bupropion concentration
READOUT_NAME: Cmax
Entry format: amount then unit.

Ask | Assign Cmax to the following record: CC(NC(C)(C)C)C(=O)c1cccc(Cl)c1 (racemic)
Reply | 217 ng/mL

* * *

assay: Pharmacokinetics of bupropion in plasma after oral administration to four normal male subjects (RIA using 3H bupropion); assay type: in vivo; settings: human plasma, oral 200 mg bupropion-HCl (two 100 mg tablets), mean ± S.D., read-out: time to reach maximum concentration
READOUT_NAME: Tmax (h)
Numeric answer only, unit h assumed.

Ask | Assign Tmax to the following record: CC(NC(C)(C)C)C(=O)c1cccc(Cl)c1 (racemic)
Reply | 1.5
